test system: NCI-H460 lung; assay: NCI-60 one-dose screen, 48 h; conditions: 10 µM unless noted
About 83,000 compounds went through this panel and 20% of them were active in at least one assay; those are over-represented in the sample as a whole. Calls of active or inactive are those of the source. The calls were made as follows: active = growth percent below 10; inactive = the rest.
In this exercise, the only acceptable responses are True (active), False (inactive)

In this assay, the call recorded for COc1ccc(-c2nc(SCC(=O)Nc3ccc(C(=O)/C=C/c4ccc(Cl)cc4)cc3)[nH]c(=O)c2C#N)cc1 was what?
False

Short answer needed: outcome of this test for Cc1ccc(NS(=O)(=O)c2ccc(-c3cnc(C4CC4)o3)cc2)cc1C ?
False

Which outcome did this test record for the compound Cc1ccc2c(c1)C(=O)/C(=C/c1cccc(OCC(=O)c3ccc(Cl)cc3)c1)CS2 ?
False

Recorded test outcome, item O=C(/C=C/c1cc(CN2CCOCC2)c(O)c2ncccc12)c1cc(CN2CCOCC2)c(O)c2ncccc12
True

Which result was noted for this compound in the test: COc1ccc(-n2nc(C)c3c(Oc4ccc(NC(=O)Nc5c(Cl)cccc5Cl)cc4)ncnc32)cc1
False

Can you look up the reported call for COc1cc2c(cc1-c1c(C)noc1C)ncc1nc(-c3ccccn3)n([C@H](C)COC(F)F)c12 for me?
False

Per the assay record, what outcome was assigned to Nc1ccc(S(=O)(=O)O)c2ccc(N=Nc3ccc(N=Nc4ccc(S(=O)(=O)O)cc4)c4ccccc34)c(O)c12 ?
False

Which outcome did this test record for the compound COc1cc(/C=C/C(=O)c2cccnc2Nc2ccc(F)cc2)cc(OC)c1OC ?
False

Write down the call the test reported for this compound. Item: COc1cccc(-c2nc3sccn3c2-c2ccnc(NCCNS(=O)(=O)c3ccccc3)c2)c1
False

Would you mind telling me which call this test gave O=C(Oc1cccnc1)c1ccsc1Nc1ccnc(C(F)(F)F)c1 ?
False

Next:
Returns: the outcome recorded for CCCCCCN(CCCCCC)C(=N)c1ccnc2ccccc12 in this assay.
False

Just curious, what result did Cc1nn(-c2cc(=O)[nH]c3ccccc23)c(N)c1C#N get here?
False

Short answer needed: outcome of this test for C/C1=C\CC[C@@]2(C)O[C@H]2[C@H]2OC(=O)C(CN3CCN(CC4C(=O)O[C@H]5[C@H]4CC/C(C)=C/CC[C@@]4(C)O[C@@H]54)CC3)[C@@H]2CC1 (stereo partly drawn) ?
False

Recorded test call requested for CC(C)(C)N1CCC1CN (stereo not drawn)
False

In this assay, the call recorded for N#Cc1c(-c2ccc(Cl)cc2)nc(N=Nc2c(O)[nH]c3ccc(Cl)cc23)nc1N1CCOCC1 was what?
False

Please state the recorded outcome for this compound: CCCCC[C@H]1C/C=C2/C(=O)C=C[C@@H]2C/C=C\CCCC(=O)O1
True

GET /call?item= COc1ccc(-c2cc(NC(=O)Nc3ccc4ncsc4c3)no2)cc1 returns the recorded outcome of this test.
False

What did the test return for Nc1n[nH]c2ccc([C@@H]3Nc4ccc5cn[nH]c5c4[C@H]4C5CCC(C5)[C@@H]34)cc12 (stereo partly drawn) ?
True

Recorded test call requested for COc1cc(-c2nn(-c3ccc(Br)cc3)cc2C(=O)O)ccc1O
False

Identify the outcome logged in this assay for the compound shown: COc1ccc(C(=S)N2CCN(c3cccc(Cl)c3)CC2)cc1
False

Just curious, what result did CC[C@@H](C(=O)[C@@H](C)[C@@H](O)[C@H](C)[C@@H]1O[C@@H]([C@@H](CC)C(=O)O)CC[C@@H]1C)[C@H]1OC2(C=C[C@@H](O)[C@]3(CC[C@@](C)([C@H]4CC[C@](O)(CC)[C@H](C)O4)O3)O2)[C@H](C)C[C@@H]1C (stereo partly drawn) get here?
False

Assay outcome for C=CC(=O)Nc1cccc(-c2nc(SC)nc(NCCc3ccc(OC)c(OC)c3)c2C#N)c1 : what was it?
False

Short answer needed: outcome of this test for CCCCCCN(CCCCCC)CCC(O)c1ccc2ccccc2c1 (stereo not drawn) ?
False

====

Catalogue of growth values
Test system: OVCAR-8 ovarian
Assay: NCI-60 one-dose screen, 48 h (100 = growth as untreated, 0 = no growth, -100 = all killed)
Conditions: 10 µM unless noted
Protocol: Growth inhibition of the OVCAR-8 human tumor cell line is measured as a screen for anti-cancer activity. Cells are grown in 96 well plates and exposed to the test compound for 48 hours. Compounds are tested at a single concentration, which is 10^-5 M for most compounds. The reported endpoint is percent growth (GI% or GIPRCNT), where numbers from 0 - 100% represent growth inhibition, and numbers from -100% - 0 represent cell death. For example, a value of 40 represents 60% growth inhibition. […]
This is part of a sample that, as a whole, favours compounds with a hit. Of some 83,000 tested, about 20% had one in any assay. Calls of active or inactive are those of the source. How the source made its calls: active means growth percent below 10; inactive means the rest.

See these solved cases before continuing.
Query the reported growth for OVCAR-8 ovarian; item: COc1ccc(/C=C/C(=O)c2cc(O)ccc2O)cc1
88.6% (inactive)

State its growth on OVCAR-8 ovarian: Cc1ccc(O)c(N2C(=NCc3ccco3)NS(=O)(=O)c3cnccc32)c1
64.5% (inactive)

OVCAR-8 ovarian / growth / OC(COc1cccc2ccccc12)CN1CCN(c2ccccc2Cl)CC1 (stereo not given) : value?
98.4% (inactive)

New cases:
What value of growth on OVCAR-8 ovarian does Cc1ccc(C2=NN3C(C2)c2cc(Br)ccc2OC32CCN(Cc3ccccc3)CC2)o1 (stereo not given) have?
98.8% (inactive)

Query growth on OVCAR-8 ovarian for CCOC(=O)c1c(C)oc2ncnc(N3CCN(C(=S)Nc4ccccc4)CC3)c12
94% (inactive)

====

tested on: NCI-H23 lung; experiment: NCI-60 one-dose screen, 48 h; details: 10 µM unless noted
This is part of a sample that, as a whole, favours compounds with a hit. Of some 83,000 tested, about 20% had one in any assay. The source made the active and inactive calls. Rule for the calls: active = growth percent below 10; inactive = the rest.
Outcome (select one): true = active, false = inactive

Before answering, review these 6 worked examples.
Hey, what did the test say about C#Cc1cccc(NC(=O)c2ccccc2NC(=O)CCl)c1 ?
false

// return assay outcome for COc1cc(-c2nn(C)nc2-c2cc3ccccc3s2)cc(OC)c1OC
false

What is the recorded call for this compound in the test? CN(C)CCN1C(=O)c2cccc3c(N)ccc(c23)C1=O
false

Call for entry COc1cc(CNc2oc(-c3ccccc3)c(-c3ccccc3)c2C#N)cc(CN2CCN(C)CC2)c1O :
false

Please share the test call associated with COc1ccc(-n2nc(C)c3c(Nc4ccc(NC(=O)Nc5ccc(Cl)c(C(F)(F)F)c5)cc4)ncnc32)cc1 .
true

Tell me the assay call for COC(=O)c1ccc(Cn2cnc3c(N)ncnc32)cc1 please.
false

***
Which outcome did this test record for the compound COc1cccc(C2=NN3C(C2)c2cc(Br)cc(OC)c2OC32CCN(Cc3ccccc3)CC2)c1 (stereo unspecified) ?
false

For Cc1ccc(C(SCC(N)C(=O)O)(c2ccccc2)c2ccc(C)cc2)cc1 (stereo unspecified) , which call appears in the assay record?
false

Recorded test call requested for O=C(O)c1c(=O)cccc2ssc12
true

Test call, this compound: COc1ccc(S(=O)(=O)N2CCCCC2)cc1NC(=O)c1[nH]c(C)c2c1CCCCC2=O
false

// outcome(item) with item = CCC([N+](=O)[O-])S(=O)(=O)c1ccc(C)cc1 (stereo unspecified)
false

Which outcome did this test record for the compound O=C1c2ccccc2OC=C(c2ccccc2)N1CCCCNc1ccc(S(=O)(=O)Nc2ncccn2)cc1 ?
false

Call for entry COc1cc(-c2ccc3c(c2)NC(=O)/C3=C\c2ccc[nH]2)ccc1O :
false

Call for entry O=C1c2cc3c(cc2-c2c1c1ccc(F)cc1c(=O)n2C[C@H](O)[C@@H](O)[C@H](O)CO)OCO3 :
true

Test call for this compound, please: Cc1nc2ccccc2n1C(=O)C[C@@H]1NC(=S)NC1=O
false

Tell me the recorded outcome of this test for O=c1c(F)cn(Cc2ccccc2CCl)c(=O)n1Cc1ccccc1CCl .
true

Name the outcome recorded for OC(COc1cccc2ccccc12)CN1CCN(c2ccccc2Cl)CC1 (stereo unspecified) in the assay.
false

====

test system: NCI-H226 lung; assay: NCI-60 one-dose screen, 48 h; conditions: 10 µM unless noted
About 83,000 compounds went through this panel and 20% of them were active in at least one assay; those are over-represented in the sample as a whole. Activity calls are given as the source filed them. The calls were made as follows: active = growth percent below 10; inactive = the rest.
Outcome (select one): 1 (yes) = active, 0 (no) = inactive

Recorded test call requested for O=c1cc(/C(=C2/C=CC=N2)c2ccc[nH]2)c2cc(Cl)ccc2o1
0 (no)

Continuing:
Tell me the assay call for COc1cc(/C=C/c2cc(/C=C/c3ccc(O)c(OC)c3)n(-c3c(C)cccc3C)c(=O)n2)ccc1O please.
1 (yes)

Which result was noted for this compound in the test: CC1=C[C@H]2c3c(c(O)c(O)c4oc(-c5ccccc5)cc(=O)c34)[C@H](c3cc(O)c(O)c4oc(-c5ccccc5)cc(=O)c34)[C@H]2C(C)(C)C1
1 (yes)
